From: patent EP0070803A2

- Tested on: Proteus mirabilis 774
- method.description: Antibiotic activity in vitro, agar dilution method (MIC)
- Type: cell-based
- condition.set: Proteus mirabilis, 774, agar dilution, DST agar, read-out: MIC
quantity: log10(MIC) (log10 of the value in µg/mL)
Field: value | Transform: log10 | Quantity: MIC | Unit: µg/mL

## Task Record request: log10(MIC) value, item CO/N=C(\C(=O)N[C@@H]1C(=O)N2C(C(=O)O)=C(COC(C)=O)CS[C@H]12)c1nc(N)n(C)n1
## Result -1.30

## Task And for CC(=O)OCC1=C(C(=O)O)N2C(=O)[C@@H](NC(=O)Cc3nc(N)n(C)n3)[C@H]2SC1 ?
## Result 2.11

## Task Next up: CO/N=C(\C(=O)N[C@@H]1C(=O)N2C(C(=O)[O-])=C(C[n+]3ccc(C(N)=O)cc3)CS[C@H]12)c1nc(N)n(C)n1
## Result -1.00

## Task Cool, now CO/N=C(\C(=O)N[C@@H]1C(=O)N2C(C(=O)O)=C(CSc3nnnn3C)CS[C@H]12)c1nc(N)n(C)n1
## Result -0.70

## Task Now the compound CO/N=C(\C(=O)N[C@@H]1C(=O)N2C(C(=O)[O-])=C(C[n+]3ccc(C(N)=O)cc3)CS[C@H]12)c1nc(N=CN(C)C)n(C)n1
## Result 1.51
